Test: protein stability index of a GFP-peptide fusion (GPS, HEK-293T) (PSI 1-6); higher = more stable;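 further: 24-mer peptide tiles fused after GFP, lentivirally expressed, FACS-sorted into six equal bins by GFP/DsRed ratio, decoded by Illumina sequencing, PSI is the read-weighted mean bin number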
Conditions: treatment: MLN4924 1 uM, 8 h; c terminus: native
Please use MET whenever protein stability index is not below 3, and NOT MET whenever it is.

Sequence Text: TYKRFEGLTQRGSIPTYMKAGKL [STK38L]
Class: NOT MET
//
Sequence Text: SVFLLTLSIAFICCAQVKVSHLL [PHTF1]
Class: MET
//
Sequence Text: QRSHMGKLKEPQPQDHKPGLGAS
Class: MET
//
Sequence Text: HYICTLKQPHLLLEKYSYYLISG [PNLIPRP1]
Class: MET
//
Sequence Text: YSFRNPDVQSAIWRMLTGRRSLA [OR3A1]
Class: NOT MET
//
Sequence Text: LQKQGKYSGVGLLDHMVSIYLLI [RNF180]
Class: NOT MET
//
Sequence Text: VLICVIVFIIILFIVLFATGAFS [VAMP8]
Class: MET
//
Sequence Text: KNTEVSSMECEKNLYWICNKPYK [CD69]
Class: NOT MET
//
Sequence Text: PESVERLTGVSISQVNHKPLRTA [FLOT1]
Class: MET
//
Sequence Text: KPTRRDASPESPSKKGPIPIRRH [GNAS]
Class: MET

###

In this section, each of the sequences is paired with its reported protein stability index.
Assay: protein stability index of a GFP-peptide fusion (GPS, HEK-293T) (PSI 1-6); higher = more stable
Conditions: treatment: DMSO; c terminus: a fixed tail appended

Sequence Text: TCLMISCYKGHKEIAQYLLEKGAD [FEM1C]
protein stability index: 2.29
//
Sequence Text: RASYSDGKLKAPPKPCAGNQGTQI [MLH1]
protein stability index: 4.05
//
Sequence Text: QLYTAYILENRPPGSLLCTVAASD [PCDHGC5]
protein stability index: 2.11
//
Sequence Text: LSAGSPPVPPGWNPNSSSGKGSGG [DLX1]
protein stability index: 4.86
//
Sequence Text: ARKLTAQRRASTVSSVTQVEVDEN [NET1]
protein stability index: 5.15
//
Sequence Text: AGKQRMKEKEQENERKVAQLAEEN [DDIT3]
protein stability index: 5.29
//
Sequence Text: VGEVPYWVLEPVLEGWRPDQLYRR [ELOA2]
protein stability index: 1.97
//
Sequence Text: SCSLVLEHQPDNIKALFRKGKVLA [FKBP8]
protein stability index: 2.76
//
Sequence Text: AGPELDEMLREVDLNGDGTVDFDE [CABP4]
protein stability index: 5.67
//
Sequence Text: PLSVHRPPTSGCLGPVPREDQAEA [TSPAN10]
protein stability index: 5.23
//
Sequence Text: MENQVLTPHVYWAQRHRELYLRVE [HACD3]
protein stability index: 2.4
//
Sequence Text: QKLIVNLKPEKSYSFVLTNRGNSA [PTPRD]
protein stability index: 2.58
//
Sequence Text: GATALHFAAEAGHIDIVKELIKWR [FEM1B]
protein stability index: 2.39
//
Sequence Text: AFLLLPLPDELGSQLPQVLHVSLG [MOSPD3]
protein stability index: 2.96
//
Sequence Text: KTLYVGNLSRDVTEALILQLFSQI [TIA1]
protein stability index: 2.6
//
Sequence Text: RLVLPIAYEFNPELVLVSAGFDAA [HDAC6]
protein stability index: 2.3
//
Sequence Text: LETSGNPNGRYGSGYLLASTPESE [SLC6A17]
protein stability index: 4.93
//
Sequence Text: FSVSSTSRRIYRCRNCINLQNEAQ [IQUB]
protein stability index: 2.02
//
Sequence Text: APRPGPPAGTPPPTARHFQEHPRQ [MOSPD3]
protein stability index: 4.99
//
Sequence Text: KYSYTSTSDDNLLKNIELFDKLAL [KCTD13]
protein stability index: 2.63
//
Sequence Text: ASGPINFTMFLNLFGEKLSGTDAE [MYL5]
protein stability index: 2.58
//
Sequence Text: FKPLNSTPATTTEPPKPTFPAYTQ [ZNF207]
protein stability index: 3.84
//
Sequence Text: PKPAGGAIPTKKSLPSPSSSGHQN [FBF1]
protein stability index: 4.98
//
Sequence Text: LINYQDDAELATRAIPELTKLLND [CTNNB1]
protein stability index: 3.61
//
Sequence Text: KILGYLNTNVLSRDLIPPHVNFSH [SLC6A17]
protein stability index: 2.2
//
Sequence Text: EAGYYFFNGNYKVDSPKNFNIAGT [ADAMTSL2]
protein stability index: 2.34
//
Sequence Text: FAIGARARAEAEQMAKKAEAFQLY [FLOT1]
protein stability index: 2.78
//
Sequence Text: TGPQLPESLEDVAMYISQEEWGHQ [ZNF263]
protein stability index: 4.67
//
Sequence Text: RRKIRELQLRYSLRILIGDPPHHD [BEX5]
protein stability index: 2.42
//
Sequence Text: EEVVSFVKKNVLVTGGFFGGFLLG [FUNDC2]
protein stability index: 2.36
//
Sequence Text: TKKLRLTKPSKSAALHIDLCKATS [INTS4]
protein stability index: 2.91
//
Sequence Text: SFARDLPDFPSINMDPAGLDDEDD [RETREG3]
protein stability index: 5.41
//
Sequence Text: ADLELSLPECLEYEEEFDYETESE [GNAS]
protein stability index: 5.41
//
Sequence Text: VSQAVEGPEELSRSSSESKLPSSG [RIPK4]
protein stability index: 5.21
//
Sequence Text: PQHVSSDKEVRAASTEADKRLSRF [NLN]
protein stability index: 5.3
//
Sequence Text: KLSEHLRYCDSILREMLSKKHAAY [BRD3]
protein stability index: 2.28
//
Sequence Text: SLVWGMVCGQNWGIVEAMVVCRQL [LOXL2]
protein stability index: 2.46
//
Sequence Text: VVCGMFGFPGERTYNTKVYKMFAS [LOXL2]
protein stability index: 2.66
//
Sequence Text: AIRPENRAPGAGLGQDRQVPLWGQ [EMD]
protein stability index: 3.5
//
Sequence Text: TVLENEDDMLLFDEQEKGIVTKFY [FAN1]
protein stability index: 3.65
//
Sequence Text: YESTLFEDQVPALEAPEDIGSTSE [MIA2]
protein stability index: 5.55
//
Sequence Text: CYNGQDAVVNELIDYGANVNQPNN [ANKRD44]
protein stability index: 4.16
//
Sequence Text: RTALEYCKLILSLEPDEDPLCMLL [TCF25]
protein stability index: 2.24
//
Sequence Text: LPLTARWEYMHSPSENSKEAEILE [CPOX]
protein stability index: 4.94
//
Sequence Text: SFEHRVRGVRRTASTPTPDDKLFQ [CPN1]
protein stability index: 4.3
//
Sequence Text: LSSVDMRMTSSPSSIPRRDDFFRH [RAD54B]
protein stability index: 3.21
//
Sequence Text: YRSLGSVQAPSYGARPVSSAASVY [KRT18]
protein stability index: 3.33
//
Sequence Text: YRQSSFPHCSDLMPSGSEEKILRE [KCNA4]
protein stability index: 4.25
//
Sequence Text: CSFSIERILGLDQKKDCVPLMKPH [HESX1]
protein stability index: 2.33
//
Sequence Text: QAQIDQYLGLVRTHINAVVAKIQA [RTN1]
protein stability index: 2.08
//
Sequence Text: KQLRQVTKEEGLALAREFSCPFFE [RIT1]
protein stability index: 3.27
//
Sequence Text: TSCSLELIGDLIGHSSSVEMFLYF [WDR41]
protein stability index: 3.13
//
Sequence Text: ISCPTCRRETVLFTDYGLAALAVN [RNF208]
protein stability index: 2.15
